Target: T1, recombinant human FGF23 (R179Q) (human, UniProt Q9GZV9 25-251)
T1 construct: also called rhFGF23(R179Q); hFGF23(R179Q)
T1 sequence (looked up): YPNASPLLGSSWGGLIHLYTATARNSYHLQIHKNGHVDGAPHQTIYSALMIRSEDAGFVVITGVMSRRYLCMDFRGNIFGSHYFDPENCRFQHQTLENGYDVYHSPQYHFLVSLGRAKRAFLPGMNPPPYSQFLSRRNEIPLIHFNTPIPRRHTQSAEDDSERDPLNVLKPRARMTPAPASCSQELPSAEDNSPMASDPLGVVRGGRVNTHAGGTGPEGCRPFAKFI
Experiment: SPR, antibody captured on hIgG chip, rhFGF23(R179Q) analyte
Entries and their koff values follow.
propertyLabel: koff (s⁻¹)

# binder, scaleUnit, readoutNumber
records = [
    ("UGX146 (antibody, human IgG1, kappa, V domains shown, also called LC:Y94F) VH: QVQLVQSGAEVKKPGASVKVSCKASGYTFTNHYMHWVRQAPGQGLEWMGIINPISGSTSNAQKFQGRVTMTRDTSTSTVYMELSSLRSEDTAVYYCARDIVDAFDFWGQGTMVTVSS VL: AIQLTQSPSSLSASVGDRVTITCRASQGISSALVWYQQKPGKAPKLLIYDASSLESGVPSRFSGSGSGTDFTLTISSLQPEDFATYYCQQFNDFFTFGPGTKVDIKR", "s⁻¹", 0.00017),
    ("UGX131 (antibody, human IgG1, kappa, V domains shown, also called LC:S53F) VH: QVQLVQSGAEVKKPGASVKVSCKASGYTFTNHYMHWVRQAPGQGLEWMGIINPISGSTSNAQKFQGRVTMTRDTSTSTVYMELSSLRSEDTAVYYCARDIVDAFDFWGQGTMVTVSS VL: AIQLTQSPSSLSASVGDRVTITCRASQGISSALVWYQQKPGKAPKLLIYDASFLESGVPSRFSGSGSGTDFTLTISSLQPEDFATYYCQQFNDYFTFGPGTKVDIKR", "s⁻¹", 0.000266),
]
